test: differential killing of epithelial or mesenchymal cells, primary screen, imaging, PC-3E GFP, TEM4-18 mCherry, co-culture (AID 1345086); conditions: imaging cell counts, at 1 µM, actives lie on both sides, counts scaled to control wells, 1 = unselective;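 further: normalised mesenchymal count divided by normalised epithelial count so high means epithelial killing; cells exposed to compound for 72 h before imaging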
I'd appreciate it if you marked entries met when red/green cell ratio (normalised) is lower than 1 and not met when it is not.

Compound	Label Value
N=C(N=C(N)N)N1CCOCC1	met
COc1cc(OC)c2c(=O)c(-c3ccc4c(c3)OCO4)coc2c1	not met
CC[C@H]1OC(=O)C[C@@H](O)[C@H](C)[C@@H](O[C@@H]2O[C@H](C)[C@@H](O[C@H]3C[C@@](C)(O)[C@@H](O)[C@H](C)O3)[C@H](N(C)C)[C@H]2O)[C@@H](CC=O)C[C@@H](C)C(=O)/C=C/C(C)=C/[C@@H]1CO[C@@H]1O[C@H](C)[C@@H](O)[C@@H](OC)[C@H]1OC	not met
COc1ccc2cc1Oc1ccc(cc1)C[C@H]1c3cc(c(OC)cc3CCN1C)Oc1c(OC)c(OC)cc3c1[C@H](C2)N(C)CC3	met
CCN1C(=O)NC(c2ccccc2)C1=O (stereo not given)	met

Pending compound:
### Prompt Identify whether the compound CN1C(CCl)Nc2cc(Cl)c(S(N)(=O)=O)cc2S1(=O)=O (stereo not given) records red/green cell ratio (normalised) below 1.
### Response met
